# Test system: BDF1 mice, L1210 leukemia sc, survival T/C
# Assay summary: NCI In Vivo Anticancer Drug Screen. Data for tumor model L1210 Leukemia (subcutaneous) in B6D2F1 (BDF1) mice
# Run parameters: endpoint: median survival time; dose: 39.0 mg/kg/injection; schedule: Q01DX Z (sc); vehicle: methylcellulose (MC); higher = longer survival
Toxic doses and inconclusive results are not listed.
Quantity: T/C

Record excerpt, results attached:
Molecule	Quantity	Assay result
COc1ccc2nc3cc(Cl)ccc3c(NCCN(CCCl)CCCl)c2c1	T/C	100 % of control
O=C(Nc1ccc(C(=O)Nc2ccc(C3=NCCN3)cc2)cc1)Nc1ccc(C2=NCCN2)cc1	T/C	95 % of control
CC(=O)OCC(=O)[C@@]1(O)CC[C@H]2[C@@H]3CCC4=CC(=O)CC[C@]4(C)[C@@]3(F)[C@@H](O)C[C@@]21C	T/C	100 % of control
O=C(O)CCCc1ccc(N(CCCl)CCCl)cc1	T/C	110 % of control
Nc1nc(=S)c2ncn(C3OC(COC(=O)c4ccccc4)C(OC(=O)c4ccccc4)C3OC(=O)c3ccccc3)c2[nH]1 (stereo unspecified)	T/C	100 % of control

QUERY: Give T/C for O=C(O)CS
RESULT: 100 % of control

QUERY: Give T/C for C[C@]12CCC(=O)C=C1CC[C@H]1[C@@H]3CC[C@](O)(C(=O)CO)[C@@]3(C)C[C@H](O)[C@@]12F
RESULT: 100 % of control

----------
# Test system: BDF1 mice, L1210 leukemia sc, survival T/C
# Assay summary: NCI In Vivo Anticancer Drug Screen. Data for tumor model L1210 Leukemia (subcutaneous) in B6D2F1 (BDF1) mice
# Run parameters: endpoint: median survival time; dose: 8.4 mg/kg/injection; schedule: Q01DX Z (sc); vehicle: carboxymethylcellulose (CMC)
Toxic doses and inconclusive results are not listed. How the source made its calls: active means survival T/C of 150% or more; inactive means T/C below 125% in these data.
The reply should be one of these categories: active, inactive

Answered cases to consult:
O=NN(CCF)C(=O)NC1CCCCC1 active
COc1cc2c3c(c4ccc(OC)c(OC)c4c2cc1OC)CN1CCC[C@@H]1C3 inactive
O=NN(CCCl)C(=O)N[C@H]1CCCC[C@@H]1Cl active

QUERY: Status in this test for Cc1cccc(C)c1NC(=O)N(CCCl)N=O ?
RESULT: inactive

----------
T/C: recorded values
# System: BDF1 mice, L1210 leukemia sc, survival T/C
# Assay summary: NCI In Vivo Anticancer Drug Screen. Data for tumor model L1210 Leukemia (subcutaneous) in B6D2F1 (BDF1) mice
# Run parameters: endpoint: median survival time; dose: 39.0 mg/kg/injection; schedule: Q01DX Z (oral); vehicle: carboxymethylcellulose (CMC); higher = longer survival
# Method: The antitumor activity of compounds was measured in mice bearing transplantable tumors. Survival or tumor size were measured and the results are expressed as the measurement made in the treated group (T) divided by the measurement made in the vehicle treated control group (C). The tumor model used in this assay is L1210 Leukemia (subcutaneous) in B6D2F1 (BDF1) mice
Toxic doses and inconclusive results are not listed.

Record excerpt, results attached:
Compound	Measured on	Assay result
O=NN(CCCl)C(=O)NC1CCCCC1	BDF1 mice, L1210 leukemia sc, survival T/C	157 % of control
O=NN(CCCl)C(=O)NC1CC2CCC1C2 (centres undefined)	BDF1 mice, L1210 leukemia sc, survival T/C	542 % of control
O=NN(CCCl)C(=O)N[C@H]1CCCC[C@@H]1Cl	BDF1 mice, L1210 leukemia sc, survival T/C	189 % of control

API: the following record is the query input.
QUERY: Give T/C for O=NN(CCF)C(=O)NC1CCCCC1
RESULT: 242 % of control

----------
# System: BDF1 mice, L1210 leukemia sc, survival T/C
# Assay summary: NCI In Vivo Anticancer Drug Screen. Data for tumor model L1210 Leukemia (subcutaneous) in B6D2F1 (BDF1) mice
# Run parameters: endpoint: median survival time; dose: 5.0 mg/kg/injection; schedule: Q01DX Z (sc); vehicle: methylcellulose (MC)
Toxic doses and inconclusive results are not listed. Rule for the calls: active = survival T/C of 150% or more; inactive = T/C below 125% in these data.
The reply should be one of these categories: active, inactive

O=NN(CCCl)C(=O)NCCCl active
Cn1c(O)c(N=NC(N)=S)c2ccccc21 inactive
O=C(Nc1ccc(C2=NCCCN2)cc1)c1ccc(C(=O)Nc2ccc(C3=NCCCN3)cc2)cc1 active
ClCCn1c2ccccc2c2ccccc21 inactive
O=c1[nH]c(=S)c2[nH]c(=O)[nH]c2[nH]1 inactive
O=C(Nc1ccc(C2=NCCN2)cc1)c1ccc(C(=O)Nc2ccc(C3=NCCN3)cc2)c(Cl)c1 inactive
CCCn1cnc2c(=S)nc(N)[nH]c21 inactive
COC(=O)c1[nH]c(=O)[nH]c(=O)c1F inactive

With those in mind, consider the next molecule.
QUERY: Status in this test for Cn1cnc([N+](=O)[O-])c1Sc1nc(N)nc2nc[nH]c12 ?
RESULT: inactive

----------
T/C: recorded values
# Test system: BDF1 mice, L1210 leukemia sc, survival T/C
# Assay summary: NCI In Vivo Anticancer Drug Screen. Data for tumor model L1210 Leukemia (subcutaneous) in B6D2F1 (BDF1) mice
# Run parameters: endpoint: median survival time; dose: 3.0 mg/kg/injection; schedule: Q01DX Z (sc); vehicle: carboxymethylcellulose (CMC); higher = longer survival
Inconclusive results and toxic doses are left out.

O=NN(CCCl)C(=O)NC1CCCCC1 110 % of control

QUERY: Provide T/C, recorded with BDF1 mice, L1210 leukemia sc, survival T/C, of CCOC1=C(N2CC2)C(=O)C(OCC)=C(N2CC2)C1=O
RESULT: 109 % of control

QUERY: Provide T/C, recorded with BDF1 mice, L1210 leukemia sc, survival T/C, of CC[C@@]1(O)C(=O)OCc2c1cc1n(c2=O)Cc2cc3ccccc3nc2-1
RESULT: 118 % of control

QUERY: Provide T/C, recorded with BDF1 mice, L1210 leukemia sc, survival T/C, of COc1cc2c3c(c4ccc(OC)c(OC)c4c2cc1OC)CN1CCC[C@@H]1C3
RESULT: 100 % of control

QUERY: Provide T/C, recorded with BDF1 mice, L1210 leukemia sc, survival T/C, of O=NN(CCCl)C(=O)N[C@H]1CCCC[C@@H]1Cl
RESULT: 111 % of control

----------
# System: BDF1 mice, L1210 leukemia sc, survival T/C
# Assay summary: NCI In Vivo Anticancer Drug Screen. Data for tumor model L1210 Leukemia (subcutaneous) in B6D2F1 (BDF1) mice
# Run parameters: endpoint: median survival time; dose: 833.0 mg/kg/injection; schedule: Q01DX Z (sc); vehicle: methylcellulose (MC); higher = longer survival
Toxic doses and inconclusive results are not listed.
Quantity: T/C

Compound	Quantity	Assay result
CCCCCCCSc1ncnc2nc[nH]c12	T/C	100 % of control
C[C@]12CCC(=O)C=C1CC[C@H]1[C@@H]3CC[C@](O)(C(=O)CO)[C@@]3(C)C[C@H](O)[C@@]12F	T/C	112 % of control
CC(CNC(=O)CCOS(C)(=O)=O)NC(=O)CCOS(C)(=O)=O (configuration not stated)	T/C	110 % of control
Cn1c(N)nc2nc[nH]c2c1=S	T/C	110 % of control
CCC(C)SC1=NC=NC2=NC=NC21 (configuration not stated)	T/C	100 % of control

QUERY: Give T/C for CCCCSc1ncnc2nc[nH]c12
RESULT: 100 % of control

QUERY: Give T/C for OCC1OC(n2cnc3c(Cl)ncnc32)C(O)C1O (configuration not stated)
RESULT: 105 % of control

----------
# System: BDF1 mice, L1210 leukemia sc, survival T/C
# Assay summary: NCI In Vivo Anticancer Drug Screen. Data for tumor model L1210 Leukemia (subcutaneous) in B6D2F1 (BDF1) mice
# Run parameters: endpoint: median survival time; dose: 3.0 mg/kg/injection; schedule: Q01DX Z (sc); vehicle: saline; higher = longer survival
Toxic doses and inconclusive results are not listed.
T/C: recorded values

Record excerpt, results attached:
Compound	Measured on	T/C
NC(Cc1ccc(N(CCCl)CCCl)cc1)C(=O)O (stereo not drawn)	BDF1 mice, L1210 leukemia sc, survival T/C	100 % of control
COC12C(COC(N)=O)C3=C(C(=O)C(C)=C(N)C3=O)N1CC1C2N1C (stereo not drawn)	BDF1 mice, L1210 leukemia sc, survival T/C	100 % of control
CO[C@@]12[C@H](COC(N)=O)C3=C(C(=O)C(C)=C(N)C3=O)N1C[C@@H]1N[C@@H]12	BDF1 mice, L1210 leukemia sc, survival T/C	109 % of control
C[n+]1c2ccccc2nc2c(N)cc(N)cc21	BDF1 mice, L1210 leukemia sc, survival T/C	100 % of control
C1CN1c1nc(N2CC2)nc(N2CC2)n1	BDF1 mice, L1210 leukemia sc, survival T/C	108 % of control
O=c1[nH]cc(F)c(=O)[nH]1	BDF1 mice, L1210 leukemia sc, survival T/C	104 % of control
S=P(N1CC1)(N1CC1)N1CC1	BDF1 mice, L1210 leukemia sc, survival T/C	112 % of control
C[n+]1cccc2cc(NC(=O)c3ccc(C(=O)Nc4ccc5c(ccc[n+]5C)c4)cc3)ccc21	BDF1 mice, L1210 leukemia sc, survival T/C	100 % of control
N=[N+]=CC(=O)OCC(N)C(=O)O (stereo not drawn)	BDF1 mice, L1210 leukemia sc, survival T/C	105 % of control
CCCC(=O)NC1=C(N2CC2)C(=O)C(NC(=O)CCC)=C(N2CC2)C1=O	BDF1 mice, L1210 leukemia sc, survival T/C	111 % of control

QUERY: Provide T/C, recorded with BDF1 mice, L1210 leukemia sc, survival T/C, of C=CC(CO)N1CC1 (stereo not drawn)
RESULT: 100 % of control
